Please respond with reported koff for every item in the list.
- Subject of test: T1, Human Nectin-4 Protein, His Tag (human, UniProt Q96NY8 32-349)
- T1 construct: not shown: His tag
- T1 sequence (looked up): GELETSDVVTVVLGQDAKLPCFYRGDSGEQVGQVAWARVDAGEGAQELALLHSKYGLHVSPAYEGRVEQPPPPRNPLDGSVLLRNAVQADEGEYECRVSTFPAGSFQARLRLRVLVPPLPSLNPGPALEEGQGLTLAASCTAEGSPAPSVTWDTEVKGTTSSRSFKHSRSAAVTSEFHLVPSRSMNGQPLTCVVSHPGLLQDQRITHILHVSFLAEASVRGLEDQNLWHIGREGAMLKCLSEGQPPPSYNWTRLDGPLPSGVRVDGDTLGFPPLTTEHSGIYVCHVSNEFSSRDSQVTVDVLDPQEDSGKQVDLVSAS
- Experiment summary: BLI (Fortebio), antibody with human Nectin-4 protein
- Protocol: In this experiment, Fortebio was used to detect the affinity of Nectin-4 humanized antibodies to human Nectin-4 protein. After the Nectin-4 protein was incubated with the anti-Nectin-4 antibody sample, the signal value was detected by Fortebio to analyze the affinity of the sample to human Nectin-4. […] The chimeric antibodies were engineered on the basis of mouse-derived antibodies, and the constant region is selected from human IgG1.
One number for each entry, in s⁻¹.

{"Binder": "humanized antibody SWY2001-Ab2 (antibody, human IgG1, kappa, V domains shown, Full-length IgG1, kappa) VH: QVQLVQSGAEVKKPGASVKVSCKASGYTFTSYYIHWVRQAPGQRLEWMGWIYPGNVNTKYNENFRDRVTITRDTSASTAYMELSSLRSEDTAVYYCARGIYYFDYWGQGTLVTVSS VL: AIQMTQSPSSLSASVGDRVTITCKASQSVNNDVAWYQQKPGKAPKLLIYYASNRDTGVPSRFSGSGSGTDFTLTISSLQAEDLAVYFCHQDYSSPFTFGGGTKVEIKR", "Observed measurement": 0.00414}
{"Binder": "humanized antibody SWY2001-Ab1 (antibody, human IgG1, kappa, V domains shown) VH: QVQLVQSGAEVKKPGASVKVSCKASGYTFTSYYIHWVRQAPGQRLEWMGWIYPGNVNTKYNENFRDRVTITRDTSASTAYMELSSLRSEDTAVYYCARGIYYFDYWGQGTLVTVSS VL: IIQMTQSPKFLSASVGDRVTITCKASQSVNNDVAWYQQKPGQSPKLLIYYASNRDTGVPDRFSGSGSGTDFTLTISSLQPEDFATYFCHQDYSSPFTFGGGTKVEIKR", "Observed measurement": 0.00447}
{"Binder": "Chimeric antibody (antibody, V domains shown, also called chimeric anti-Nectin-4 antibody; murine antibody variable regions on human IgG1) VH: QVQLQQSGPVLVKPGASVRISCKASGYTFTSYYIHWVKQRPGQGLEWIGWIYPGNVNTKYNENFRDKATLTADKSSSTSYMQLSSLTSEDSAVYFCARGIYYFDYWGQGTTLTVSS VL: IIVMTQTPKFLLVSAGDRVTITCKASQSVNNDVAWYQEKPGQSPKLLIYYASNRDTGVPDRFTGSGYGTDFTFTISTVQAEDLAVYFCHQDYSSPFTFGSGTKLEIK", "Observed measurement": 0.00181}

**Query** Please give the documented koff of humanized antibody SWY2001-Ab3 (antibody, human IgG1, kappa, V domains shown, Full-length IgG1, kappa) VH: QVQLVQSGAEVKKPGASVKVSCKASGYTFTSYYIHWVRQAPGQRLEWMGWIYPGNVNTKYNENFRDRVTITRDTSASTAYMELSSLRSEDTAVYYCARGIYYFDYWGQGTLVTVSS VL: AIQMTQSPSSLSASVGDRVTITCKASQSVNNDVAWYQQKPGKAPKLLIYYASNRDTGVPSRFSGSGSGTDFTLTISSLQPEDFATYFCHQDYSSPFTFGGGTKVEIKR
**Result** 0.00425
